# PROCEDURE_SUMMARY: in vivo
# EXPERIMENTAL_SETUP: female, New Zealand white, rabbit, in vivo, po, Serum concentration
# Method: The experiment was carried out on thirty 10-wk old female New Zealand white rabbits (INRA 1777 line) weighing 2.37±0.14kg . […] Residual concentrations of the compounds, and their possible evolution over time, were determined by sampling six entirely untreated rabbits during the TK study on the day of drug administrations, then 14 d and 28 d later. The volume administered was adjusted to the animal’s body weight (BW) recorded the day before. […]
# concentration at 72 h annotations
The reply should be a number in nM, with the unit left off.

Q) Quick one: concentration at 72 h for `Clc1c(Cl)c(Cl)c(Cl)c(Cl)c1Cl` ?
A) 220

New cases:
Q) Quick one: concentration at 72 h for `ClC(Cl)=C(c1ccc(Cl)cc1)c1ccc(Cl)cc1` ?
A) 140

====

# PROCEDURE_SUMMARY: TK assay, intravenous mixture dosing: serum concentrations and noncompartmental analysis (sparse data)
# EXPERIMENTAL_SETUP: female, New Zealand white, rabbit, in vivo, iv, Serum concentration, rabbit 2, […]
# concentration at 24 h annotations
The reply should be a number in nM, with the unit left off.

Answered cases to consult:
Q) Quick one: concentration at 24 h for `Brc1ccc(Oc2ccc(Br)cc2Br)c(Br)c1` ?
A) 140

Q) Quick one: concentration at 24 h for `O=C(O)C(F)(F)C(F)(F)C(F)(F)C(F)(F)C(F)(F)C(F)(F)C(F)(F)F` ?
A) 160

Next, consider the following compound.
Q) Quick one: concentration at 24 h for `Cl[C@H]1[C@H](Cl)[C@@H](Cl)[C@H](Cl)[C@@H](Cl)[C@@H]1Cl` ?
A) 50

====

# PROCEDURE_SUMMARY: in vivo
# EXPERIMENTAL_SETUP: female, New Zealand white, rabbit, in vivo, iv, Serum concentration
# concentration at 0.6 h annotations
The reply should be a number in nM, with the unit left off.

Q) Quick one: concentration at 0.6 h for `Clc1c(Cl)c(Cl)c(Cl)c(Cl)c1Cl` ?
A) 11

Next, consider the following compound.
Q) Quick one: concentration at 0.6 h for `ClC(Cl)=C(c1ccc(Cl)cc1)c1ccc(Cl)cc1` ?
A) 600

====

# PROCEDURE_SUMMARY: TK assay, oral mixture dosing: serum concentrations and noncompartmental analysis (sparse data)
# EXPERIMENTAL_SETUP: female, New Zealand white, rabbit, in vivo, po, Serum concentration, oral, rabbit 19, 12.00 h; MEHP after oral DEHP
ENDPOINT_LABEL: concentration at 12 h (µM)
The reply should be a number in µM, with the unit left off.

Q) Quick one: concentration at 12 h for O=C(O)C(F)(F)C(F)(F)C(F)(F)C(F)(F)C(F)(F)C(F)(F)C(F)(F)F [PFOA, perfluorooctanoic acid] ?
A) 4.88

====

# PROCEDURE_SUMMARY: in vivo
# EXPERIMENTAL_SETUP: female, New Zealand white, rabbit, in vivo, iv, Serum concentration
ENDPOINT_LABEL: concentration at 167.92 h (nM)
The reply should be a number in nM, with the unit left off.

Q) Quick one: concentration at 167.92 h for `ClC(Cl)=C(c1ccc(Cl)cc1)c1ccc(Cl)cc1` ?
A) 11

New cases:
Q) Quick one: concentration at 167.92 h for `Clc1c(Cl)c(Cl)c(Cl)c(Cl)c1Cl` ?
A) 4.1

Where do these numbers come from? They come from paper PMC8597046.
